Experiment: Cytotoxicity assay, HepG2 cells (CellTiter 96 AQueous One)
Conditions: human, HepG2 cells
Listing of recorded CC50 at 24 h by entry.

Before answering, review these 2 worked examples.
[
  {
    "Molecule": "Nc1ccc2oc3c(c2c1)CCCC3",
    "CC50 at 24 h": "> 1000 µM"
  },
  {
    "Molecule": "Oc1noc2cc(Cl)ccc12 [Fragment F27, 6-Chlorobenzo[d]isoxazol-3-ol]",
    "CC50 at 24 h": "> 1000 µM"
  }
]

Exam item: What CC50 at 24 h value was documented for this molecule, COC(=O)c1cc2ccccc2cn1 [Fragment F4, Methyl isoquinoline-3-carboxylate] ?
Marked response: > 1000 µM
